Experimental Target: human plasma Kallikrein (Homo sapiens, UniProt P03952)
Construct: purchased Stratech, UK
Sequence (P03952 20-638): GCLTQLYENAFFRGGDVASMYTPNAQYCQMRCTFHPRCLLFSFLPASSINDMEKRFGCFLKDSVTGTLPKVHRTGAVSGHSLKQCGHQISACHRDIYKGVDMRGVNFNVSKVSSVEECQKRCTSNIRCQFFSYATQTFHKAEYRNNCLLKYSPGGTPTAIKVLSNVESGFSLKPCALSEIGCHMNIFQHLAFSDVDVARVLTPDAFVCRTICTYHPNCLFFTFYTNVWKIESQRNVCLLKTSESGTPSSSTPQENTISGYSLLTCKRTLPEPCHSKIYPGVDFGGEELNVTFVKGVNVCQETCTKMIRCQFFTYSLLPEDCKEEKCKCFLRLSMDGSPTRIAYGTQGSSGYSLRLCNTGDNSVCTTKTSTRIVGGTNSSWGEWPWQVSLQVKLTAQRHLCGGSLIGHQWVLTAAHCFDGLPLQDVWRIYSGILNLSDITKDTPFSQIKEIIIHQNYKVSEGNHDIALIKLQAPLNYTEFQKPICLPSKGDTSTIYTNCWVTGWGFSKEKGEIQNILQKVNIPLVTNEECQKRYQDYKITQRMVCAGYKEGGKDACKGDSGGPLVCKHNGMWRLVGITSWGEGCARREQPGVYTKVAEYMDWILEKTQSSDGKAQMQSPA
Test Summary: Functional enzyme inhibition assay, fluorogenic substrate Z-PheArg-AMC
Type: biochemical
Condition Description: vs Ac-06-34-18(TMB)-NH2
Procedure: Peptides were dissolved as the TFA-salts in their powder form, and stock solutions were usually prepared in water. All solutions were centrifuged and filtered ([…] syringe filters) prior absorption measurement at 280 nm. […]
Please provide measured loss in potency / reduction in affinity compared to wildtype for the entries that follow.
Record the value in fold, omitting the unit from your answer.

Problem: Identify loss in potency / reduction in affinity compared to wildtype associated with the compound CC(=O)N[C@H]1CSCc2cc3cc(c2)CSC[C@H](NC(=O)[C@H](CCCNC(=N)N)NC(=O)[C@H](C)NC(=O)[C@@H]2CCCN2C(=O)[C@@H](Cc2c[nH]c4ccccc24)NC(=O)[C@H](CO)NC1=O)C(=O)N[C@@H](CC(C)C)C(=O)N[C@@H](Cc1c[nH]cn1)C(=O)N[C@@H](CCC(N)=O)C(=O)N[C@@H](CC(=O)O)C(=O)N[C@@H](CC(C)C)C(=O)N[C@H](C(N)=O)CSC3 [Ac-(06-34-18) D-Trp2]
Solution: 45000

Problem: Respond only with loss in potency / reduction in affinity compared to wildtype recorded for CC(=O)N[C@H]1CSCc2cc3cc(c2)CSC[C@H](NC(=O)[C@H](CCCNC(=N)N)N(C)C(=O)[C@H](C)NC(=O)[C@@H]2CCCN2C(=O)[C@H](Cc2c[nH]c4ccccc24)NC(=O)[C@H](CO)NC1=O)C(=O)N[C@@H](CC(C)C)C(=O)N[C@@H](Cc1c[nH]cn1)C(=O)N[C@@H](CCC(N)=O)C(=O)N[C@@H](CC(=O)O)C(=O)N[C@@H](CC(C)C)C(=O)N[C@H](C(N)=O)CSC3 [Ac-(06-34-18) NMeArg5]
Solution: 20

====

Test Summary: Plasma stability profiling method 1 (35% plasma, MALDI-TOF, qualitative)
Assay type: in vitro ADME, rat
Condition Description: 35% rat plasma, 37 deg C, method 1, comparative estimate
Numbered stars: 1 amine (or outer) side, 2 acyl side, 3 side chain; on linkers, the order of the positions; unused ones are H or OH. Bridge positions count the residues as written; N and C are the ends. Peptide text beside a SMILES is read from it. TBMB = c1c(C[*:1])cc(C[*:3])cc1C[*:2]
Measurement Name: Observable in rat plasma, for days (days)
The reply should be a number in days, with the unit left off.

Problem: For the compound CC(=O)N[C@H]1CSCc2cc3cc(c2)CSC[C@H](NC(=O)[C@H](CCCNC(=N)N)NC(=O)[C@H](Cc2ccc(O)cc2)NC(=O)[C@@H]2CCCN2C(=O)[C@H](Cc2c[nH]c4ccccc24)NC(=O)[C@H](CO)NC1=O)C(=O)N[C@@H](CC(C)C)C(=O)N[C@@H](Cc1c[nH]cn1)C(=O)N[C@@H](CCC(N)=O)C(=O)N[C@@H](CC(=O)O)C(=O)N[C@@H](CC(C)C)C(=O)N[C@H](C(N)=O)CSC3 [Ac-(06-34-18) WPYR] (Ac-CSWPYRCLHQDLC-NH2; linker 1-7-13 via TBMB) , give its measured Observable in rat plasma, for days value.
Solution: 2

====

Experimental Target: human plasma Kallikrein (Homo sapiens)
Construct: purchased Stratech, UK
Test Summary: Functional enzyme inhibition assay, fluorogenic substrate Z-PheArg-AMC
Assay type: biochemical
Condition Description: Ki (nM) (human kallikrein), Ac-06-34-18(TMB)-NH2 series
Numbered stars: 1 amine (or outer) side, 2 acyl side, 3 side chain; on linkers, the order of the positions; unused ones are H or OH. Bridge positions count the residues as written; N and C are the ends. Square brackets hold non-standard residues; d marks the D form. Peptide text beside a SMILES is read from it. Phe(4-guanidino) = N=C(N)Nc1ccc(C[C@H](N)C(=O)O)cc1; TBMB = c1c(C[*:1])cc(C[*:3])cc1C[*:2]; 4Pal = N[C@@H](Cc1ccncc1)C(=O)O; Aze = O=C(O)[C@@H]1CCN1; Aib = CC(C)(N)C(=O)O
Measurement Name: log10(Ki) (log10 of the value in nM)
Scale: decimal log of Ki, Ki in nM.

Problem: # return recorded log10(Ki) for input CC(=O)N[C@H]1CSCc2cc3cc(c2)CSC[C@H](NC(=O)[C@H](CCCNC(=N)N)NC(=O)[C@H](C)NC(=O)C(C)(C)NC(=O)[C@H](Cc2c[nH]c4ccccc24)NC(=O)[C@H](CO)NC1=O)C(=O)N[C@@H](CC(C)C)C(=O)N[C@@H](Cc1c[nH]cn1)C(=O)N[C@@H](CCC(N)=O)C(=O)N[C@@H](CC(=O)O)C(=O)N[C@@H](CC(C)C)C(=O)N[C@H](C(N)=O)CSC3 [Ac-(06-34-18) Aib3] (Ac-CSW[Aib]ARCLHQDLC-NH2; linker 1-7-13 via TBMB)
Solution: 0.08

Problem: Find the measured log10(Ki) of CC(=O)N[C@H]1CSCc2cc3cc(c2)CSC[C@H](NC(=O)[C@H](CCCNC(=N)N)NC(=O)[C@H](Cc2ccc(O)cc2)NC(=O)[C@@H]2CCCN2C(=O)[C@H](Cc2c[nH]c4ccccc24)NC(=O)[C@H](CO)NC1=O)C(=O)N[C@@H](CC(C)C)C(=O)N[C@@H](Cc1c[nH]cn1)C(=O)N[C@@H](CCC(N)=O)C(=O)N[C@@H](CC(=O)O)C(=O)N[C@@H](CC(C)C)C(=O)N[C@H](C(N)=O)CSC3 [Ac-(06-34-18) WPYR] (Ac-CSWPYRCLHQDLC-NH2; linker 1-7-13 via TBMB) and report it.
Solution: -0.39

Problem: Give a short answer stating reported log10(Ki) for CN=C(NC)NCCC[C@@H]1NC(=O)[C@H](C)NC(=O)[C@@H]2CCCN2C(=O)[C@H](Cc2c[nH]c3ccccc23)NC(=O)[C@H](CO)NC(=O)[C@@H](NC(C)=O)CSCc2cc3cc(c2)CSC[C@H](NC1=O)C(=O)N[C@@H](CC(C)C)C(=O)N[C@@H](Cc1c[nH]cn1)C(=O)N[C@@H](CCC(N)=O)C(=O)N[C@@H](CC(=O)O)C(=O)N[C@@H](CC(C)C)C(=O)N[C@H](C(N)=O)CSC3 [Ac-(06-34-18) SDMA5] .
Solution: 3.15

Problem: State its log10(Ki): CC(=O)N[C@H]1CSCc2cc3cc(c2)CSC[C@H](NC(=O)[C@H](Cc2ccc(NC(=N)N)cc2)NC(=O)[C@H](C)NC(=O)[C@@H]2CCN2C(=O)[C@H](Cc2c[nH]c4ccccc24)NC(=O)[C@H](CO)NC1=O)C(=O)N[C@@H](CC(C)C)C(=O)N[C@@H](Cc1c[nH]cn1)C(=O)N[C@@H](CCC(N)=O)C(=O)N[C@@H](CC(=O)O)C(=O)N[C@@H](CC(C)C)C(=O)N[C@H](C(N)=O)CSC3 [Ac-(06-34-18) Aze3 4GuanPhe5] (Ac-CSW[Aze]A[Phe(4-guanidino)]CLHQDLC-NH2; linker 1-7-13 via TBMB)
Solution: -0.77

Problem: Give the reported value of log10(Ki) for this record: CC(=O)N[C@H]1CSCc2cc3cc(c2)CSC[C@H](NC(=O)[C@H](CCCNC(=N)N)NC(=O)[C@H](Cc2ccncc2)NC(=O)[C@@H]2CCCN2C(=O)[C@H](Cc2ccccc2)NC(=O)[C@H](CO)NC1=O)C(=O)N[C@@H](CC(C)C)C(=O)N[C@@H](Cc1c[nH]cn1)C(=O)N[C@@H](CCC(N)=O)C(=O)N[C@@H](CC(=O)O)C(=O)N[C@@H](CC(C)C)C(=O)N[C@H](C(N)=O)CSC3 [Ac-(06-34-18) Phe2 4Pal4] (Ac-CSFP[4Pal]RCLHQDLC-NH2; linker 1-7-13 via TBMB)
Solution: 0.34

====

Experimental Target: Biotinylated hPK (Homo sapiens, UniProt P03952)
Construct: IHPKA, from human plasma; purchased Innovative Research, Novi, MI, USA IHPKA; host or cells: human plasma
Sequence (P03952 20-638): as above
Test Summary: Phage selections, abundance of sequences in selection outputs
Assay type: binding
Condition Description: randomised WPAR motif at positions 2, 3, 4 & 5 within the 06-34-03 sequence
Measurement Name: Frequency (relative abundance in the total selection outputs)
Hey, just send me the number, nothing else.

Problem: Kindly indicate its recorded Frequency (relative abundance in the total selection outputs). Item: SEQ ID NO: 101 (CSFLYKCTHQDLC; Synthetic sequence Kallikrein binder identified from selections using a randomised WPAR motif at positions 2, 3, 4 & 5 within the 06-34-03 sequence of PCT/EP2012/069898 (SEQ ID NO 58))
Solution: 2

Problem: Please look at this substance and report its Frequency (relative abundance in the total selection outputs): SEQ ID NO: 95 (CSFPWRCTHQDLC; Synthetic sequence Kallikrein binder identified from selections using a randomised WPAR motif at positions 2, 3, 4 & 5 within the 06-34-03 sequence of PCT/EP2012/069898 (SEQ ID NO 58))
Solution: 1

Problem: For SEQ ID NO: 105 (CSYPWRCTHQDLC; Synthetic sequence Kallikrein binder identified from selections using a randomised WPAR motif at positions 2, 3, 4 & 5 within the 06-34-03 sequence of PCT/EP2012/069898 (SEQ ID NO 58)) , write its Frequency (relative abundance in the total selection outputs).
Solution: 1

Problem: Provide measured Frequency (relative abundance in the total selection outputs) value, entry: SEQ ID NO: 111 (CRWPYHCTHQDLC; Synthetic sequence Kallikrein binder identified from selections using a randomised WPAR motif at positions 2, 3, 4 & 5 within the 06-34-03 sequence of PCT/EP2012/069898 (SEQ ID NO 58))
Solution: 1
